Assign pIC50 to each entry below.
System: Aβ42
Assay: γ-secretase-modulating activity, Method 2: Aβ42 Alphalisa in supernatant of SKNBE2 cells carrying APP 695-wild type (Table 3b)
Assay type: cell-based
Settings: Homo sapiens, overnight
Answers are plain numbers, as −log10 of the molar value.

Recorded pIC50, per entry:
>>> df
                                   compound  target_desc  reported_result
0  COc1cc(-c2nc(C(C)(O)c3cccc(C(F)(F)F)c3)n(C(C)C)n2)ccc1-n1cnc(C)c1 (stereo not drawn)         Aβ42             6.30
1  COc1cc(-c2n[nH]c(-c3cccc(C(F)(F)F)c3)n2)ccc1-n1cnc(C)c1         Aβ42             6.51
2  COc1cc(-c2nc3n(n2)CCCC3c2ccccc2C(F)(F)F)ccc1-n1cnc(C)c1 (stereo not drawn)         Aβ42             7.60

Batch: pIC50 for all items listed.
1. COc1cc(-c2nc(Sc3cccc(C(F)(F)F)c3)n(C)n2)ccc1-n1cnc(C)c1
2. COc1cc(-c2nc(C)n(-c3ccc(F)cc3)n2)ccc1-n1cnc(C)c1

Completion:
6.19
6.38

====

System: Aβ42
Test: γ-secretase-modulating activity, Method 2: Aβ42 Alphalisa in supernatant of SKNBE2 cells carrying APP 695-wild type (Table 3b)
Format: cell-based
Details: overnight
Assign pIC50 to each entry below.
One number for each entry, as −log10 of the molar value.

Recorded pIC50, per entry:
>>> print(df.to_string())
                                   compound  reported_result
0  COc1nc(-c2nc3n(n2)CCOC3c2cc(C(F)(F)F)ccc2C)ccc1-n1cnc(C)c1 (stereo not shown)             7.44
1  COc1nc(-c2nc(Nc3cc(OC(F)(F)F)ccc3F)n(C)n2)ccc1-n1cnc(C)c1             7.89
2  COc1nc(-c2nc(C)n(C(C)c3ccc(F)cc3)n2)ccc1-n1cnc(C)c1 (racemic)             5.90

API: the following record is the query input.
Prompt: Quick one: pIC50 for "COc1cc(-c2nc(C(=O)Nc3cccc(C(F)(F)F)c3)n(C)n2)ccc1-n1cnc(C)c1" ?
Completion: 5.51

====

Tested on: Aβ42
Assay: γ-secretase-modulating activity, Method 2: Aβ42 Alphalisa in supernatant of SKNBE2 cells carrying APP 695-wild type (Table 3b)
Assay type: cell-based
Conditions: overnight
Assign IC50 to each entry below.
Answers are plain numbers, in nM.

Recorded IC50, per entry:
In [3]: df
Out[3]:
                                   molecule  target_desc  measurement_label  reported_result
0  COc1cc(-c2nc(Nc3ccccc3Cl)n(C)n2)ccc1-n1cnc(C)c1 [Compound 101]         Aβ42               IC50               41
1  COc1cc(-c2nc(C)n(-c3cccc(C(F)(F)F)c3)n2)ccc1-n1cnc(C)c1 [Compound 30]         Aβ42               IC50              295

API: the following record is the query input.
Prompt: Give IC50 (Aβ42) of the following molecule: COc1cc(-c2nc(-c3cc(C(F)(F)F)ccc3C)n(C(C)C)n2)ccc1-n1cnc(C)c1 [Compound 73]
Completion: 200
